// reported % reduction of binding by control antibody per item
- target under test: T1, hIL-6R recombinant protein (plate-coated, Example 5) (human, UniProt P08887 20-358, limits assumed)
- T1 construct: also called antigen
- T1 sequence: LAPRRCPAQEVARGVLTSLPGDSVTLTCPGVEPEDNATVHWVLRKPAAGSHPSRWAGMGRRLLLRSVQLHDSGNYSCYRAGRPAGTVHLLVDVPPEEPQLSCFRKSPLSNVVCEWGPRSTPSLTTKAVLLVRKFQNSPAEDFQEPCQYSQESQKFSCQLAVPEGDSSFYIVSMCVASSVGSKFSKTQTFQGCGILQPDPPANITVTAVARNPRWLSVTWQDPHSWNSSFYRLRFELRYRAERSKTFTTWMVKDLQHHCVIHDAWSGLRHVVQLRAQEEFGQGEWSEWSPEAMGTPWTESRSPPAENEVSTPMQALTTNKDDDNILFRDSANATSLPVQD
- method summary: competition ELISA on hIL-6R-coated plate presaturated with competitor control antibody; test antibody 50 ng/ml
measure: % reduction of binding by control antibody (%)

>  <binder>
VV6C10-1 (antibody, V domains shown, Human variable regions with mouse constant region) VH: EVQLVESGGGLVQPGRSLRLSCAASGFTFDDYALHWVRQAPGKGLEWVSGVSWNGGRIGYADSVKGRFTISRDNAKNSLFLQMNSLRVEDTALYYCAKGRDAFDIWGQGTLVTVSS VL: EIVLTQSPATLSLSPGERATLSCRASQSVSSYLAWYQQKPGQAPRLLIYDASNRATGIPARFSGSGSGTDFTLTISSLEPEDFAFYYCQQRNNRPPFTFGPGTKVDVR

>  <value unit>
%

>  <measured number>
80

$$$$
>  <binder>
VV6F12-11 (antibody, V domains shown, Human variable regions with mouse constant region) VH: QVQLVQSGAEVKEPGASVKISCKASGYTFTSYDIIWVRQATGQGLEWMGWMNPNSGDRGYTQNLQGRVTLTRDTSISTVYMELSSLRSEDTAVYYCARDYSNHYYGLDVWGQGTTVTVSS VL: DIQLTQSPSFLSASVGDRVTITCWASQDISNYLAWYQQKPGKAPKLLIFVASTLQSGVPSRFSGSGSGTEFTLTISSLQPEDFATYYCQQFNSYPLTFGGGTKVEIR

>  <value unit>
%

>  <measured number>
3

$$$$
>  <binder>
VV1G4-7 (antibody, IgG2a, V domains shown, Human variable regions with mouse constant region) VH: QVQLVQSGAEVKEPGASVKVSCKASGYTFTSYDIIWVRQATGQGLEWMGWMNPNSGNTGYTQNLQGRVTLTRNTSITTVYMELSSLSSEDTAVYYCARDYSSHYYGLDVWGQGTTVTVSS VL: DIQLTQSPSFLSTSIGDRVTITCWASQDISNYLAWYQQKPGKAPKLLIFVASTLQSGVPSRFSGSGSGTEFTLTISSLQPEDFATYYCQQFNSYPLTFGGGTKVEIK

>  <value unit>
%

>  <measured number>
3

$$$$
